Assay: HepG2 in vitro viability assay (CellTiter-Glo, 72 hours)
Assay type: cell-based, human
Conditions: human, HepG2 cells; 10.0 nM, 72-hour treatment
quantity kind: viability at 72 h, 0.01 µM (%)
Give bare numbers, in %.

Q) What value of measured viability at 72 h, 0.01 µM is listed for `COc1cc(-c2cn(C)c(=O)c(C)c2C)cc(OC)c1CN1CC[C@H](N2CCN(c3ccc(N[C@H]4CCC(=O)NC4=O)cc3F)CC2)C(F)(F)C1` ?
A) 91.6

---

Experiment: Pharmacokinetic study in male Sprague Dawley rats
Format: in vivo, rat
Settings: rat, plasma; 2 mg/kg IV, Male Sprague Dawley Rats, mean
quantity kind: AUC(0-t)
Kindly format the answer as number then unit.

Q) What value of measured AUC(0-t) is listed for COc1cc(-c2cn(C)c(=O)c(C)c2C)cc(OC)c1CN1CC[C@H](N2CCN(c3ccc(N[C@H]4CCC(=O)NC4=O)cc3F)CC2)C(F)(F)C1 [Compound 1] ?
A) 1520 ng·h/mL

---

Assay: Pharmacokinetic study in male CD1 mice
Format: in vivo, mouse
Details: mouse, plasma; male CD1 mice, 2 mg/kg IV, Mean; read-out: Vdss
quantity kind: Vd

Q) What value of measured Vd is listed for COc1cc(-c2cn(C)c(=O)c(C)c2C)cc(OC)c1CN1CC[C@H](N2CCN(c3ccc(N[C@H]4CCC(=O)NC4=O)cc3F)CC2)C(F)(F)C1 [Compound 1] ?
A) 2.01 L/kg

---

Assay: Pharmacokinetic study in male CD1 mice
Assay type: in vivo, mouse
Conditions: male, CD1, mouse, plasma, intravenous, 2 mg/kg, 2 mg/kg IV, 8 h; read-out: Plasma Concentration, individual mice
quantity kind: concentration at 8 h (ng/mL)
One number for each entry, in ng/mL.

Q) What value of measured concentration at 8 h is listed for `COc1cc(-c2cn(C)c(=O)c(C)c2C)cc(OC)c1CN1CC[C@H](N2CCN(c3ccc(N[C@H]4CCC(=O)NC4=O)cc3F)CC2)C(F)(F)C1` ?
A) 257

---

Assay: Pharmacokinetic study in male Sprague Dawley rats
Assay type: in vivo, rat
Conditions: rat, plasma; 2 mg/kg IV, Male Sprague Dawley Rats, mean
quantity kind: half-life
Kindly format the answer as number then unit.

Q) What value of measured half-life is listed for COc1cc(-c2cn(C)c(=O)c(C)c2C)cc(OC)c1CN1CC[C@H](N2CCN(c3ccc(N[C@H]4CCC(=O)NC4=O)cc3F)CC2)C(F)(F)C1 [Compound 1] ?
A) 3.97 h

---

Test: Pharmacokinetic study in male CD1 mice
Type: in vivo, mouse
Conditions: male, CD1, mouse, plasma, oral, 10 mg/kg, 10 mg/kg PO, 1 h; read-out: Plasma Concentration, Average
quantity kind: concentration at 1 h (ng/mL)
Numbers only, in ng/mL.

Q) What value of measured concentration at 1 h is listed for `COc1cc(-c2cn(C)c(=O)c(C)c2C)cc(OC)c1CN1CC[C@H](N2CCN(c3ccc(N[C@H]4CCC(=O)NC4=O)cc3F)CC2)C(F)(F)C1` ?
A) 3370

---

Test: physchem
Conditions: 37 °C, pH 1, simulated gastric fluid, thermodynamic from solid
quantity kind: Solubility

Q) What value of measured Solubility is listed for COc1cc(-c2cn(C)c(=O)c(C)c2C)cc(OC)c1CN1CC[C@H](N2CCN(c3ccc(N[C@H]4CCC(=O)NC4=O)cc3F)CC2)C(F)(F)C1 [Form P] ?
A) > 2000 µg/mL

---

Experiment: Pharmacokinetic study in male CD1 mice
Assay type: in vivo, mouse
Settings: male, CD1, mouse, plasma, intravenous, 2 mg/kg, 2 mg/kg IV, 24 h; read-out: Plasma Concentration, individual mice
quantity kind: concentration at 24 h
Kindly format the answer as number then unit.

Q) What value of measured concentration at 24 h is listed for `COc1cc(-c2cn(C)c(=O)c(C)c2C)cc(OC)c1CN1CC[C@H](N2CCN(c3ccc(N[C@H]4CCC(=O)NC4=O)cc3F)CC2)C(F)(F)C1` ?
A) 0.0115 µg/mL

---

Test: Pharmacokinetic study in male Sprague Dawley rats
Assay type: in vivo, rat
Conditions: male, Sprague Dawley, rat, plasma, oral, 10 mg/kg, 10 mg/kg PO, Male Sprague Dawley Rats, 1 h, Rat-1; read-out: Plasma Concentration (ng/mL) Rat-1
quantity kind: concentration at 1 h
Kindly format the answer as number then unit.

Q) What value of measured concentration at 1 h is listed for `COc1cc(-c2cn(C)c(=O)c(C)c2C)cc(OC)c1CN1CC[C@H](N2CCN(c3ccc(N[C@H]4CCC(=O)NC4=O)cc3F)CC2)C(F)(F)C1` ?
A) 648 ng/mL

---

Assay: Pharmacokinetic study in male Sprague Dawley rats
Format: in vivo, rat
Details: male, Sprague Dawley, rat, plasma, oral, 10 mg/kg, 10 mg/kg PO, Male Sprague Dawley Rats, 2 h, average; read-out: Plasma Concentration Average
quantity kind: concentration at 2 h (ng/mL)
One number for each entry, in ng/mL.

Q) What value of measured concentration at 2 h is listed for `COc1cc(-c2cn(C)c(=O)c(C)c2C)cc(OC)c1CN1CC[C@H](N2CCN(c3ccc(N[C@H]4CCC(=O)NC4=O)cc3F)CC2)C(F)(F)C1` ?
A) 673

---

Test: HepG2 in vitro viability assay (CellTiter-Glo, 72 hours)
Type: cell-based, human
Details: human, HepG2 cells; 31.7 nM, 72-hour treatment
quantity kind: viability at 72 h, 0.0317 µM (%)
Answers are plain numbers, in %.

Q) What value of measured viability at 72 h, 0.0317 µM is listed for `COc1cc(-c2cn(C)c(=O)c(C)c2C)cc(OC)c1CN1CC[C@H](N2CCN(c3ccc(N[C@H]4CCC(=O)NC4=O)cc3F)CC2)C(F)(F)C1` ?
A) 97.4

---

Assay: Pharmacokinetic study in male CD1 mice
Assay type: in vivo, mouse
Conditions: male, CD1, mouse, plasma, intravenous, 2 mg/kg, 2 mg/kg IV, 0.033 h; read-out: Plasma Concentration, Average
Description: The pharmacokinetic (PK) profile in plasma of Compound 1 was determined in male CD1 mice following single dose intravenous (IV) (2 mg/kg) and per os (PO) (10 mg/kg) administration. […] All animals were housed in cages with clean bedding and maintained and monitored for good health and at the discretion of the laboratory animal veterinarian. […] After blood collection from each animal, the sample from that animal was recorded in the sample collection sheet. […]
quantity kind: concentration at 0.033 h (ng/mL)
Answers are plain numbers, in ng/mL.

Q) What value of measured concentration at 0.033 h is listed for `COc1cc(-c2cn(C)c(=O)c(C)c2C)cc(OC)c1CN1CC[C@H](N2CCN(c3ccc(N[C@H]4CCC(=O)NC4=O)cc3F)CC2)C(F)(F)C1` ?
A) 1400

---

Target: bromodomain of BRD9 (Homo sapiens)
Construct: made in house; host or cells: E. coli
Sequence (Q9H8M2 136-240 limits assumed): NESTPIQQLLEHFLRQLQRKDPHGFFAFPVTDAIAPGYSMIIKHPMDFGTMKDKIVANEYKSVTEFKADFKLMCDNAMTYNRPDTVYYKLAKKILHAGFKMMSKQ
Assay: AlphaLISA competition assay, binding to BRD9
Details: n=3, read-out: Kd (geometric mean), binding affinity to BRD9
quantity kind: Kd (nM)
Give bare numbers, in nM.

Q) Form field: Kd recorded for `COc1cc(-c2cn(C)c(=O)c(C)c2C)cc(OC)c1CN1CC[C@H](N2CCN(c3ccc(N[C@H]4CCC(=O)NC4=O)cc3F)CC2)C(F)(F)C1` with bromodomain of BRD9 (Homo sapiens) (enter value)
A) 139

---

Assay: Approximate solubility in solvents at 25° C. and 50° C. (visual observation)
Assay type: physicochemical
Details: organic solvent or mixture, thermodynamic from solid; Methanol, 25° C., target conc. = 250 mg/mL
quantity kind: Solubility

Q) What value of measured Solubility is listed for COc1cc(-c2cn(C)c(=O)c(C)c2C)cc(OC)c1CN1CC[C@H](N2CCN(c3ccc(N[C@H]4CCC(=O)NC4=O)cc3F)CC2)C(F)(F)C1 [Compound 1] ?
A) 10 to 17 mg/mL

---

Assay: Pharmacokinetic study in male CD1 mice
Type: in vivo, mouse
Settings: mouse, plasma; male CD1 mice, 2 mg/kg IV, Mean
quantity kind: AUC(0-inf) (ng·h/mL)
Give bare numbers, in ng·h/mL.

Q) What value of measured AUC(0-inf) is listed for COc1cc(-c2cn(C)c(=O)c(C)c2C)cc(OC)c1CN1CC[C@H](N2CCN(c3ccc(N[C@H]4CCC(=O)NC4=O)cc3F)CC2)C(F)(F)C1 [Compound 1] ?
A) 5450

---

Test: HepG2 in vitro viability assay (CellTiter-Glo, 72 hours)
Type: cell-based, human
Conditions: human, HepG2 cells; 0.32 nM, 72-hour treatment
quantity kind: viability at 72 h, 0.00032 µM
Kindly format the answer as number then unit.

Q) What value of measured viability at 72 h, 0.00032 µM is listed for COc1cc(-c2cn(C)c(=O)c(C)c2C)cc(OC)c1CN1CC[C@H](N2CCN(c3ccc(N[C@H]4CCC(=O)NC4=O)cc3F)CC2)C(F)(F)C1 [Compound 1] ?
A) 111%
